Test: Pharmacokinetics after intravenous administration
Details: C57BL/6, mouse, whole blood, 10 mg/kg
Square brackets hold non-standard residues; d marks the D form. Peptide text beside a SMILES is read from it.
measurement_type: Cmax
Answer as a quantity: numeral, then unit.

Reported Cmax for CC(C)C[C@@H]1NC(=O)[C@H](CCCNC(=N)N)NC(=O)[C@H](C(C)C)NC(=O)[C@@H]2CCCN2C(=O)[C@@H](Cc2ccccc2)NC(=O)[C@H](CC(C)C)NC(=O)[C@H](CCCNC(=N)N)NC(=O)[C@H]([C@@H](C)O)NC(=O)[C@H](C)NC(=O)[C@@H](Cc2ccccc2)NC1=O [XQ2B] (cyclo([dF]ATRL[dF]PVRL)) was 105 µg/mL

* * *

Test: in vitro
Conditions: mouse, L929 cells, Cell viability (Fig. S2e), L929 (48h), XQ2 7.5 μM
Square brackets hold non-standard residues; d marks the D form. Peptide text beside a SMILES is read from it.
measurement_type: viability at 48 h, 7.5 µM (%)
Please give a number only; it is taken to be in %.

Reported viability at 48 h, 7.5 µM for CC(C)C[C@@H]1NC(=O)[C@H](CCCNC(=N)N)NC(=O)[C@H](C(C)C)NC(=O)[C@@H]2CCCN2C(=O)[C@@H](Cc2ccccc2)NC(=O)[C@H](CC(C)C)NC(=O)[C@H](CCCNC(=N)N)NC(=O)[C@H](C(C)C)NC(=O)[C@H](C)NC(=O)[C@@H](Cc2ccccc2)NC1=O [XQ2, Cyclo (LfAVRLfPVR)] (cyclo(L[dF]AVRL[dF]PVR)) was 93.1

* * *

Assay: Cell viability (CCK-8), cytotoxicity
Settings: human, THP1 cells, Cell viability (Fig. S7a), XQ2 312.5 nM
Square brackets hold non-standard residues; d marks the D form. Peptide text beside a SMILES is read from it.
measurement_type: viability at 48 h, 0.3125 µM (%)
Please give a number only; it is taken to be in %.

Reported viability at 48 h, 0.3125 µM for CC(C)C[C@@H]1NC(=O)[C@H](CCCNC(=N)N)NC(=O)[C@H](C(C)C)NC(=O)[C@@H]2CCCN2C(=O)[C@@H](Cc2ccccc2)NC(=O)[C@H](CC(C)C)NC(=O)[C@H](CCCNC(=N)N)NC(=O)[C@H](C(C)C)NC(=O)[C@H](C)NC(=O)[C@@H](Cc2ccccc2)NC1=O [XQ2, Cyclo (LfAVRLfPVR)] (cyclo(L[dF]AVRL[dF]PVR)) was 103

* * *

Reported remaining activity at 20 µM values follow for various compounds
Target: recombinant human cGAS enzyme (hcGAS-ΔN, residues 147–522) (Homo sapiens)
Construct: N-terminally truncated human cGAS (hcGAS-ΔN, residues 147–522); 6xHis-SUMO (N, cleaved yes); made in house; host or cells: Escherichia coli BL21 (DE3)
Assay: RNA-based fluorescent biosensor assay of cGAS activity (2',3'-cGAMP formation), in vitro screening
Format: biochemical
Settings: 20 μM; replicate values; read-out: Remaining activity (%), Fig. 1a source data
Square brackets hold non-standard residues; d marks the D form. Peptide text beside a SMILES is read from it.
Please give a number only; it is taken to be in %.

Example entries begin here.
compound: CC(C)C[C@@H]1NC(=O)[C@H](CCCNC(=N)N)NC(=O)[C@H]([C@@H](C)O)NC(=O)[C@@H]2CCCN2C(=O)[C@@H](C(C)C)NC(=O)[C@H](CC(C)C)NC(=O)[C@H](CCCNC(=N)N)NC(=O)[C@H]([C@@H](C)O)NC(=O)[C@@H]2CCCN2C(=O)[C@@H](Cc2ccccc2)NC1=O [XQ31, Cyclo (LvPTRLfPTR)] (cyclo(L[dF]PTRL[dV]PTR))
tested_on: recombinant human cGAS enzyme (hcGAS-ΔN, residues 147–522) (Homo sapiens)
measurement_type: remaining activity at 20 µM
quantitative_readout: 69.4
//
compound: CC(C)C[C@H]1NC(=O)[C@H](Cc2ccccc2)NC(=O)[C@H]2CCCN2C(=O)[C@@H]([C@H](C)O)NC(=O)[C@@H](CCCNC(=N)N)NC(=O)[C@@H](CC(C)C)NC(=O)[C@H](Cc2ccccc2)NC(=O)[C@H]2CCCN2C(=O)[C@@H]([C@H](C)O)NC(=O)[C@@H](CCCNC(=N)N)NC1=O [XQ24, Cyclo (tpFlrtpFlr)] (cyclo(F[dL][dR][dT][dP]F[dL][dR][dT][dP]))
tested_on: recombinant human cGAS enzyme (hcGAS-ΔN, residues 147–522) (Homo sapiens)
measurement_type: remaining activity at 20 µM
quantitative_readout: 94.2
//
compound: CC(C)C[C@@H]1NC(=O)[C@H](CCCNC(=N)N)NC(=O)[C@H](C(C)C)NC(=O)[C@@H]2CCCN2C(=O)[C@@H](C)NC(=O)[C@H](C)NC(=O)[C@H](CCCNC(=N)N)NC(=O)[C@H](C(C)C)NC(=O)[C@@H]2CCCN2C(=O)[C@@H](Cc2ccccc2)NC1=O [XQ14, Cyclo (AaPVRLfPVR)] (cyclo(A[dA]PVRL[dF]PVR))
tested_on: recombinant human cGAS enzyme (hcGAS-ΔN, residues 147–522) (Homo sapiens)
measurement_type: remaining activity at 20 µM
quantitative_readout: 96
//
compound: CC(C)C[C@@H]1NC(=O)[C@H](CCCNC(=N)N)NC(=O)[C@H](C(C)C)NC(=O)[C@H](C)NC(=O)[C@@H](Cc2ccccc2)NC(=O)[C@H](CC(C)C)NC(=O)[C@H](CCCNC(=N)N)NC(=O)[C@H](C(C)C)NC(=O)[C@H](C)NC(=O)[C@@H](Cc2ccccc2)NC1=O [XQ8, Cyclo (LfAVRLfAVR)] (cyclo(AVRL[dF]AVRL[dF]))
tested_on: recombinant human cGAS enzyme (hcGAS-ΔN, residues 147–522) (Homo sapiens)
measurement_type: remaining activity at 20 µM
quantitative_readout: 48.8

Reported remaining activity at 20 µM for CC(C)C[C@@H]1NC(=O)[C@H](CCCNC(=N)N)NC(=O)[C@H]([C@@H](C)O)NC(=O)[C@@H]2CCCN2C(=O)[C@@H](C)NC(=O)[C@H](CC(C)C)NC(=O)[C@H](CCCNC(=N)N)NC(=O)[C@H]([C@@H](C)O)NC(=O)[C@@H]2CCCN2C(=O)[C@@H](C)NC1=O [XQ40, Cyclo (LaPTRLaPTR)] (cyclo(L[dA]PTRL[dA]PTR)) was 117

Reported remaining activity at 20 µM for CC(C)C[C@@H]1NC(=O)[C@H](CCCNC(=N)N)NC(=O)[C@H](C)NC(=O)[C@@H]2CCCN2C(=O)[C@@H](Cc2ccccc2)NC(=O)[C@H](C)NC(=O)[C@H](CCCNC(=N)N)NC(=O)[C@H](C)NC(=O)[C@@H]2CCCN2C(=O)[C@@H](Cc2ccccc2)NC1=O [XQ16, Cyclo (AfPARLfPAR)] (cyclo(ARA[dF]PARL[dF]P)) was 98.3

* * *

Molecular target: recombinant human cGAS enzyme (hcGAS-ΔN, residues 147–522) (Homo sapiens, UniProt Q8N884)
Construct: N-terminally truncated human cGAS (hcGAS-ΔN, residues 147–522); 6xHis-SUMO (N, cleaved yes); made in house; host or cells: Escherichia coli BL21 (DE3)
Sequence (Q8N884 147-522, stated change not applied): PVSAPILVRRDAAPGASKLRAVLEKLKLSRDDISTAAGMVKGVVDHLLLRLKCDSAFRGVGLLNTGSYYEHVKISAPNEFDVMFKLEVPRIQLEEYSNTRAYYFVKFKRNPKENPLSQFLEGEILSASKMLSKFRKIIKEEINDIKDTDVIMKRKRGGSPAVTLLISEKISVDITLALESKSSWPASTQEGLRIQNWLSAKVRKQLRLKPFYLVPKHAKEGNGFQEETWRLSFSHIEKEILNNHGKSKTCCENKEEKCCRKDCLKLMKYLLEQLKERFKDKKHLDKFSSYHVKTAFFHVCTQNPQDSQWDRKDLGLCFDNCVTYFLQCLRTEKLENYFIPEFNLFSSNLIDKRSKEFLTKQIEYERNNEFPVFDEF
Assay: RNA-based fluorescent biosensor assay of cGAS activity (2',3'-cGAMP formation), in vitro screening
Format: biochemical
Details: 20 μM; replicate values; read-out: Remaining activity (%), Fig. 1a source data
Square brackets hold non-standard residues; d marks the D form. Peptide text beside a SMILES is read from it. Hyp = O=C(O)[C@@H]1C[C@@H](O)CN1
Reported remaining activity at 20 µM values follow for various molecules
Please give a number only; it is taken to be in %.

Example entries begin here.
molecule: CC(C)C[C@@H]1NC(=O)[C@H](CCCNC(=N)N)NC(=O)[C@H]([C@@H](C)O)NC(=O)[C@@H]2CCCN2C(=O)[C@@H](Cc2ccccc2)NC(=O)[C@H](CC(C)C)NC(=O)[C@H](CCCNC(=N)N)NC(=O)[C@H]([C@@H](C)O)NC(=O)[C@@H]2CCCN2C(=O)CNC1=O [XQ32, Cyclo (LgPTRLfPTR)] (cyclo(GPTRL[dF]PTRL))
quantitative_readout: 69.3
--
molecule: CC(C)C[C@@H]1NC(=O)[C@H](CCCNC(=N)N)NC(=O)[C@H](C(C)C)NC(=O)[C@@H]2C[C@@H](O)CN2C(=O)[C@@H](Cc2ccccc2)NC(=O)[C@H](CC(C)C)NC(=O)[C@H](CCCNC(=N)N)NC(=O)[C@H](C(C)C)NC(=O)[C@@H]2C[C@@H](O)CN2C(=O)[C@@H](Cc2ccccc2)NC1=O [XQ12, Cyclo (Lf(Hyp)VRLf(Hyp)VR)] (cyclo([Hyp]VRL[dF][Hyp]VRL[dF]))
quantitative_readout: 93.7

# input for lookup
Reported remaining activity at 20 µM for CC(C)C[C@@H]1NC(=O)[C@H](CCCNC(=N)N)NC(=O)[C@H](C(C)C)NC(=O)[C@@H]2CCCN2C(=O)[C@@H](Cc2ccccc2)NC(=O)[C@H](C)NC(=O)[C@H](CCCNC(=N)N)NC(=O)[C@H](C)NC(=O)[C@@H]2CCCN2C(=O)[C@@H](Cc2ccccc2)NC1=O [XQ15, Cyclo (AfPVRLfPAR)] (cyclo(ARA[dF]PVRL[dF]P)) was 110

Sourced from paper PMC10545747
